All figures here come from patent US20250215104A1.

molecular target: T1, cynomolgus soluble urokinase plasminogen activator receptor (cynomolgus suPAR) (cynomolgus, UniProt Q9GK78 23-303, limits assumed); assay: off-rate screen of scFv clones (kdis), Octet BLI
T1 construct: also called cynomolgus uPAR; cynoPLAUR-His
T1 sequence (Q9GK78 23-303 limits assumed): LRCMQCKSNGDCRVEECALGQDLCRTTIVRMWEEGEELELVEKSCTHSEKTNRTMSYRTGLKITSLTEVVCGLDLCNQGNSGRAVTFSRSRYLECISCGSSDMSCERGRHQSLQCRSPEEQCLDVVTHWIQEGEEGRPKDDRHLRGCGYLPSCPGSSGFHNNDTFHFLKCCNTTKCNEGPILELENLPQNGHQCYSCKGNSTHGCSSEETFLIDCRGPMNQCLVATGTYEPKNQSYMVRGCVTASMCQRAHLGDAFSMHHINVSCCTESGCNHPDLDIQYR
METRIC: koff (s⁻¹)
Record the value in s⁻¹, omitting the unit from your answer.

Give the measured koff for suPAR_DB04_G09 (scFv, V domains shown, scFv clone from phage display) VH: QVQLVQSGAEVKKPGASVKVSCKASGDTSTTYYMHWVRQAPGQGLEWMGWIDHENGNTIYDQKFQGRVTMTRDTSTSTVYMELSSLRSEDTAVYYCARGYDVDWFVYWGQGTLVTVSS VL: DIQMTQSPSSLSASVGDRVTITCSAKSSVSYMYWYQQKPGKAPKLLIYRTSNLASGVPSRFSGSGSGTDFTLTISSLQPEDFATYYCQQYHSYPPTFGGGTKVEIK
0.000647

Identify koff associated with the binder suPAR_DB04_E07 (scFv, V domains shown, scFv clone from phage display) VH: QVQLVQSGAEVKKPGASVKVSCKASGDTFTSYYIHWVRQAPGQGLEWMGWIDHENGNTIYDQKFQGRVTMTRDTSTSTVYMELSSLRSEDTAVYYCARGYDVDWFVYWGQGTLVTVSS VL: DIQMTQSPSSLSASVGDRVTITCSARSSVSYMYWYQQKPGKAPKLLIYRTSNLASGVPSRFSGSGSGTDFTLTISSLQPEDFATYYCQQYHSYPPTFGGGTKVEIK
0.00023
